Target: H2-D^b (Mus musculus, UniProt P01899)
Assay: Cell-free competition MHC peptide binding assay, purified H2-D^b
Where no end group is shown, it is not given here.
reported_metric: IC50 (nM)
I only need the number, in nM, no unit after it.

Consider the following illustrative entries.
INSERT INTO measurements (residue_sequence, experimental_target, numeric_value) VALUES
  ('KVPRNQDWL [hgp100_25–33]', 'H2-D^b (Mus musculus, UniProt P01899)', 186),
  ('EGSRNQDWL [mgp100_25–33]', 'H2-D^b (Mus musculus, UniProt P01899)', 23000);

Okay, now this sequence:
Please give the measured IC50 for this sequence: EGPRNQDWL [EGP]
454

* * *

Target: HLA-A*0201 (Homo sapiens, UniProt P04439, D140Y/D185E/D98H/E176V/E277Q/G131W/G231S/I119V/I121R/I166T/I218V/L300P/L318F/N151K/N90K/P208A/P217A/Q86G/Q94H/R138H/R169H/T345S)
Assay: Cell-free competition MHC peptide binding assay, purified HLA-A*0201
Where no end group is shown, it is not given here.
reported_metric: pIC50
// scale note: pIC50 = -log10(conc_M); give the bare number

Please give the measured pIC50 for this sequence: FMDGTMSQV [Tyr369–377]
8.38
